Measured self-cleavage accompanies every entry in the list below.
B1: Twister Ribozyme (parent)
chain: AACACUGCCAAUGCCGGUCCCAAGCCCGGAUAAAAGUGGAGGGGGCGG

variants of: B1; assay: self-cleavage, relative activity (ratio to wild type); higher = more cleavage; co-transcriptional
Recorded Metric: self-cleavage

>>> print(df.to_string())
          mut  recorded_metric  readout_value
 0   C5G A30G    self-cleavage          0.608
 1  A11G A30G    self-cleavage          0.674
 2  U18C A30U    self-cleavage          0.512
 3  G13C G45U    self-cleavage          0.144
 4   C8G A33C    self-cleavage          0.203
 5  U18G C19A    self-cleavage         0.0794
 6  G36U G42U    self-cleavage          0.103
 7  C20U A23C    self-cleavage         0.0767
 8  C21G C26U    self-cleavage         0.0515
 9  A40U G42C    self-cleavage          0.157
10   U6C A32G    self-cleavage          0.518
